# target: Bifunctional phosphoribosylaminoimidazole carboxylase/phosphoribosylaminoimidazole succinocarboxamide synthetase (Homo sapiens, UniProt P22234); note: in the data inactive means no Kd found up to 30 µM
# Sequence (P22234 whole entry): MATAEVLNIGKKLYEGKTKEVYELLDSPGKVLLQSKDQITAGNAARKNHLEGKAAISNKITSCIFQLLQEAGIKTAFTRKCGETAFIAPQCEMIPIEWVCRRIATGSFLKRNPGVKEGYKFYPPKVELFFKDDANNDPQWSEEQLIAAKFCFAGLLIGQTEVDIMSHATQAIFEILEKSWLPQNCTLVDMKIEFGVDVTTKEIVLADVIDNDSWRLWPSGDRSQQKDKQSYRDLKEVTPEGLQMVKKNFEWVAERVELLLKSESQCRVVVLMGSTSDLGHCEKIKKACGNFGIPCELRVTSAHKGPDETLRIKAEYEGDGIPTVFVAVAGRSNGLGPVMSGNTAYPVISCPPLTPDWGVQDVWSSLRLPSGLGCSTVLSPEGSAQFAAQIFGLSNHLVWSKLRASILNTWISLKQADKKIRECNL
Calls of active or inactive are those of the source.
readoutName: Kd

compound | Kd
CN1CC[C@@H](c2c(O)cc(O)c3c(=O)cc(-c4ccccc4Cl)oc23)[C@@H]1CO | > 30 µM (inactive)
C[C@@H](c1ccc2nccn2c1)n1nnc2ncc(-c3cnn(C)c3)nc21 | > 30 µM (inactive)

For the next question, use this compound.
Return the recorded Kd value; entry: Cc1cc2c(F)c(Oc3ncnn4cc(OC[C@@H](C)OC(=O)[C@H](C)N)c(C)c34)ccc2[nH]1 [BRIVANIB ALANINATE]
> 30 µM (inactive)
